pKi values for Beta-3 adrenergic receptor (Homo sapiens) compiled from several publications are listed below.
pKi is a log-scale quantity: -log10 of the concentration expressed in molar.

[in] Entry CS(=O)(=O)Nc1cc(C(O)CNC(Cc2ccccc2)c2ccc(S(C)(=O)=O)cc2)ccc1O (configuration not stated) : reported pKi = ?
[out] 6.36

[in] Queued: CS(=O)(=O)Nc1cc(C(O)CNC(Cc2ccccc2)c2ccsc2)ccc1O (configuration not stated)
[out] 6.89

[in] Queued: CS(=O)(=O)Nc1cc(C(O)CNC(Cc2ccccc2)c2ccc3sccc3c2)ccc1O (configuration not stated)
[out] 6.64

[in] Queued: COc1ccc([C@@H](Cc2ccccc2)NC[C@H](O)c2ccc(O)c(NS(C)(=O)=O)c2)cc1OC
[out] 7.96

[in] Queued: CS(=O)(=O)Nc1cc([C@@H](O)CN[C@H](Cc2ccccc2)c2ccc(C(=O)O)cc2)ccc1O
[out] 5.07

[in] Queued: CS(=O)(=O)Nc1cc([C@@H](O)CNC(c2ccc(OC(F)F)cc2)c2ccc(OC(F)F)cc2)ccc1O
[out] 6.80

[in] Queued: COc1ccc([C@@H](Cc2ccccc2)NC[C@@H](O)Cc2ccc(O)c(NS(C)(=O)=O)c2)cc1O
[out] 8.10

[in] Queued: O=C(O)COc1ccc(OCCNC[C@H](O)COc2ccccc2)cc1
[out] 6.28

[in] Queued: COc1ccc(C(C)(NC[C@H](O)c2ccc(O)c(NS(C)(=O)=O)c2)c2ccc(OC)cc2)cc1
[out] 7.70

[in] Queued: CS(=O)(=O)Nc1cc([C@@H](O)CN[C@H](Cc2ccccc2)c2ccc(C#N)cc2)ccc1O
[out] 6.68

[in] Queued: CS(=O)(=O)Nc1cc(C[C@H](O)CN[C@H](Cc2ccccc2)c2ccc(Cl)c(Cl)c2)ccc1O
[out] 6.88

[in] Queued: COc1cccc([C@@H](Cc2ccccc2)NC[C@@H](O)Cc2ccc(O)c(NS(C)(=O)=O)c2)c1
[out] 6.96

[in] Queued: COc1ccc(CNC[C@H](O)CCc2ccc(O)c(NS(C)(=O)=O)c2)cc1
[out] 5.43

[in] Queued: COc1ccc([C@H](CCc2ccccc2)NC[C@H](O)Cc2ccc(O)c(NS(C)(=O)=O)c2)cc1OC
[out] 8.05

[in] Queued: CS(=O)(=O)Nc1cc(C(O)CNCCc2ccccc2)ccc1O (configuration not stated)
[out] 5.96

[in] Queued: COc1ccc(CNCC(O)Cc2ccc(O)c(NS(C)(=O)=O)c2)cc1 (configuration not stated)
[out] 5.96

[in] Queued: Cc1ccc(C(C)C)c(OCC(O)CN2CCC(CN3C(=O)c4cccc5cccc(c45)C3=O)CC2)c1 (configuration not stated)
[out] 6.39

[in] Queued: COc1ccc(CNCC(O)c2ccc(O)c(NS(C)(=O)=O)c2)cc1 (configuration not stated)
[out] 5.81

[in] Queued: CNC(=O)CCCCC(Cc1ccccc1)NCC(O)c1ccc(O)c(NS(C)(=O)=O)c1 (configuration not stated)
[out] 5.80

[in] Queued: COc1ccc([C@@H](Cc2ccccc2)NC[C@@H](O)Cc2ccc(O)c(NS(C)(=O)=O)c2)cc1
[out] 7.28

[in] Queued: COc1ccc([C@@H](Cc2ccccc2)NC[C@H](O)c2ccc(O)c(NS(C)(=O)=O)c2)c(OC)n1
[out] 7.82

[in] Queued: CN(C)C(=O)c1ccc([C@@H](Cc2ccccc2)NC[C@H](O)c2ccc(O)c(NS(C)(=O)=O)c2)cc1
[out] 6.10

[in] Queued: CS(=O)(=O)Nc1cc([C@@H](O)CN[C@H](Cc2ccccc2)c2ccc(OC(F)F)cc2)ccc1O
[out] 7.68

[in] Queued: COc1ccc([C@@H](Cc2ccccc2)NC[C@H](O)CCc2ccc(O)c(NS(C)(=O)=O)c2)cc1OC
[out] 6.80

[in] Queued: CS(=O)(=O)Nc1cc([C@@H](O)CN[C@H](Cc2ccccc2)c2ccc(C(=O)NO)cc2)ccc1O
[out] 6.83

[in] Queued: CS(=O)(=O)Nc1cc(C(O)CNC(Cc2ccccc2)C2CCCCC2)ccc1O (configuration not stated)
[out] 5.37

[in] Queued: CC(C)c1ccccc1OCC(O)CN1CCC(CN2C(=O)c3cccc4cccc(c34)C2=O)CC1 (configuration not stated)
[out] 5.99

[in] Queued: CS(=O)(=O)Nc1c(O)ccc([C@@H](O)CN[C@H](Cc2ccccc2)c2ccc(OC(F)F)cc2)c1F
[out] 6.57

[in] Queued: COc1ccc([C@@H](Cc2ccccc2)NC[C@H](O)Cc2ccc(O)c(NS(C)(=O)=O)c2)cc1
[out] 6.34

[in] Queued: CS(=O)(=O)Nc1cc([C@@H](O)CN[C@H](Cc2cccc(Cl)c2)c2ccc(OC(F)F)cc2)ccc1O
[out] 8.05

[in] Queued: CC(C)NCC(O)c1ccc(O)c(NS(C)(=O)=O)c1 (configuration not stated)
[out] 5.39

[in] Queued: CS(=O)(=O)Nc1cc([C@@H](O)CNC(Cc2ccccc2)c2ccc(OC(F)(F)F)cc2)ccc1O (some centres not stated)
[out] 6.68

[in] Queued: COc1ccc([C@H](CCc2ccccc2)NC[C@H](O)Cc2ccc(O)c(NS(C)(=O)=O)c2)cc1
[out] 7.51
